Cited source: ChEMBL document CHEMBL2218924

- assayTarget: AMP-activated protein kinase, AMPK (Homo sapiens) (UniProt P54646+O43741+P54619+Q9UGJ0+Q9Y478+Q13131+Q9UGI9)
- assaySetup: at 10 µM
experimentalEndpoint: residual activity (%)
Please state the figure in %; there is no need to write the unit.

Worked cases, answers included:
INSERT INTO results (structuresmiles, experimentalendpoint, quantitativereadout) VALUES
  ('O=C(Nc1ccc(Cl)cc1)c1ccccc1NCc1ccncc1', 'residual activity', 72),
  ('CC(C)(C)c1nc2c3ccc(F)cc3c3c(=O)[nH]ccc3c2[nH]1', 'residual activity', 23),
  ('CC(C)c1nn(-c2c(Cl)cccc2Cl)c2nc(Cc3ccc(OCCO)cc3)[nH]c(=O)c12', 'residual activity', 74);

Suppose we examine the compound `COc1ccc(COc2ccc(Cc3cnc(N)nc3N)cc2OC)cc1` ; what residual activity value has been reported? 82

Suppose we examine the compound `O=C1Cc2c([nH]c3ccc([N+](=O)[O-])cc23)-c2ccccc2N1` ; what residual activity value has been reported? 36

###

- assayTarget: Serine/threonine-protein kinase pim-3 (Homo sapiens)
- assaySetup: at 10 µM
// reported residual activity per item
Please state the figure in %; there is no need to write the unit.

Worked cases, answers included:
INSERT INTO assay_data (structuresmiles, assaytarget, experimentalendpoint, quantitativereadout) VALUES
  ('Fc1ccc(-c2nc3n(c2-c2ccncc2)CCS3)cc1', 'Serine/threonine-protein kinase pim-3 (Homo sapiens)', 'residual activity', 98),
  ('Nc1nc(Nc2ccc(S(N)(=O)=O)cc2)nn1C(=O)c1c(F)cccc1F', 'Serine/threonine-protein kinase pim-3 (Homo sapiens)', 'residual activity', 102),
  ('O=C(O)/C=C/c1cc(Br)c(Br)c(Br)c1Br', 'Serine/threonine-protein kinase pim-3 (Homo sapiens)', 'residual activity', 39);

Suppose we examine the compound `Nc1n[nH]c2nc3ccccc3nc12` ; what residual activity value has been reported? 86

Suppose we examine the compound `Nc1ncnc2c1c(-c1ccc(Oc3ccccc3)cc1)cn2C1CCCC1` ; what residual activity value has been reported? 88

Suppose we examine the compound `Cn1sc(=O)n(Cc2ccccc2)c1=O` ; what residual activity value has been reported? 85

Suppose we examine the compound `O=c1cc(N2CCNCC2)oc2c(-c3ccccc3)cccc12` ; what residual activity value has been reported? 76

Suppose we examine the compound `CN(C)S(=O)(=O)c1ccc2c(c1)/C(=C/c1cc3c([nH]1)CCCC3)C(=O)N2` ; what residual activity value has been reported? 94

Suppose we examine the compound `O=C1NC(=O)c2c1c1c3ccccc3[nH]c1n1cncc21` ; what residual activity value has been reported? 17

Suppose we examine the compound `NC(=O)c1ccc(-c2nc(-c3ccc4c(c3)OCCO4)c(-c3ccccn3)[nH]2)cc1` ; what residual activity value has been reported? 97

Suppose we examine the compound `N#Cc1c(NC(=O)c2cccc3ccccc23)sc2c1CCCC2` ; what residual activity value has been reported? 85

Suppose we examine the compound `O=C1Cc2c([nH]c3ccc(Br)cc23)-c2ccccc2N1` ; what residual activity value has been reported? 79

Suppose we examine the compound `Nc1ncnc2[nH]nc(Nc3ccc(F)cc3)c12` ; what residual activity value has been reported? 69

Suppose we examine the compound `CC(C)c1nn(-c2c(Cl)cccc2Cl)c2nc(Cc3ccc(OCCO)cc3)[nH]c(=O)c12` ; what residual activity value has been reported? 92
